- tgt: KRas G12V (Homo sapiens, UniProt P01116, G12V)
- Sequence (P01116 1-169 isoform P01116-2 G12V): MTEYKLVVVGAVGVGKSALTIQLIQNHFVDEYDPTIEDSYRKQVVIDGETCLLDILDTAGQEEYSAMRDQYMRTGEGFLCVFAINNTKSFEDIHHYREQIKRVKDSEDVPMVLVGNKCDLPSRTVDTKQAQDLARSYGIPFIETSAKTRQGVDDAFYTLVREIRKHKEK
- assay remarks: biochemical
- condition notes: Binding to KRas (IC50 nM) G12V, TR-FRET displacement, KRas G12V
measured parameter: IC50 (nM)

Would you please look over these solved cases?
[
  {
    "compound": "Cc1cc2[nH]ncc2c(N2CCc3c(nc(OCC45CCCN4CCC5)nc3N3CC4CC(O)C(C4)C3)C2)c1C (stereo not drawn)",
    "result units": "nM",
    "IC50": 805
  },
  {
    "compound": "CCc1c(F)ccc2cc(O)cc(N3CCc4c(nc(OC[C@@]56CCCN5C[C@H](F)C6)nc4N4CCCCC(CC(=O)N(C)C)C4)C3)c12 (stereo partly drawn)",
    "result units": "nM",
    "IC50": 4
  }
]

(1) CCc1c(F)ccc2cc(O)cc(N3CCc4c(nc(OC[C@@]56CCCN5C[C@H](F)C6)nc4N4CCCN(CC(F)(F)F)CC4)C3)c12
(2) CCc1cccc2cccc(N3CCc4c(nc(OCC5(CN(C)C)CC5)nc4N4CCCC(c5c[nH]nn5)C4)C3)c12 (stereo not drawn)
Asked: Compare IC50: is it lower for 1 or for 2 ? Please reply using the label of the selected record.
Given back: 1

---

- System: MKN1 cells
- assay remarks: Inhibition of KRas-mediated phosphorylation of ERK (Cisbio HTRF pERK), MKN1 cells
- Type: cell-based
- condition notes: Homo sapiens, MKN-1, 3 hour compound incubation, Cisbio pERK HTRF
measured parameter: IC50 (nM)

Recorded results for 6 compounds are shown here.
[
  {
    "compound": "CCc1c(F)ccc2cc(O)cc(N3CCc4c(nc(OC[C@@]56CCCN5C[C@H](F)C6)nc4N4CCCn5nc(N(C)C)cc5C4)C3)c12",
    "measurement": 99.9
  },
  {
    "compound": "CCc1c(F)ccc2cc(O)cc(N3CCc4c(nc(OC[C@@]56CCCN5C[C@H](F)C6)nc4N4CCCn5nc(NC(C)C)cc5C4)C3)c12",
    "measurement": 32.9
  },
  {
    "compound": "CCc1c(F)ccc2cc(O)cc(N3CCc4c(nc(OC[C@@]56CCCN5C[C@H](F)C6)nc4N4CCCOCC4)C3)c12",
    "measurement": 5.8
  },
  {
    "compound": "CCc1c(F)ccc2cc(O)cc(N3CCc4c(nc(OCC56CCCN5C/C(=C\\F)C6)nc4N4C[C@@H]5C[C@H](C4)[C@H](O)C5)C3)c12 (stereo partly drawn)",
    "measurement": 5.8
  },
  {
    "compound": "CCNc1cc2n(n1)CCCN(c1nc(OC[C@@]34CCCN3C[C@H](F)C4)nc3c1CCN(c1cc(O)cc4ccc(F)c(CC)c14)C3)C2",
    "measurement": 1.7
  },
  {
    "compound": "CCc1c(F)ccc2cc(O)cc(N3CCc4c(nc(OC[C@@]56CCCN5C[C@H](F)C6)nc4N4CCCn5nc(C(=O)N6CCN(C)CC6)cc5C4)C3)c12",
    "measurement": 5.7
  }
]

(A) CCc1c(F)ccc2cc(O)cc(N3CCc4c(nc(OC[C@@]56CCCN5C[C@H](F)C6)nc4N4CCCn5nc(C(=O)N(C)C)nc5C4)C3)c12
(B) CCc1c(F)ccc2cc(O)cc(N3CCc4c(nc(OC[C@@]56CCCN5C[C@H](F)C6)nc4N4CCCn5nc(C(=O)N6CC7COCC6C7)cc5C4)C3)c12 (stereo partly drawn)
(C) CCc1c(F)ccc2cc(O)cc(N3CCc4c(nc(OCC5(CN(C)C)CC5)nc4N4CCCC(c5cn(C)nn5)C4)C3)c12 (stereo not drawn)
(D) CCc1c(F)ccc2cc(O)cc(N3CCc4c(nc(OC[C@@]56CCCN5C[C@H](F)C6)nc4N4Cc5cn(C(=O)N(C)C)nc5CC(C)C4)C3)c12 (stereo partly drawn)
Asked: Your job: order these 4 records by IC50, ascending. Respond with the label ranking, as requested.
Given back: A, B, D, C
(A: 2 nM, B: 7 nM, D: 189 nM, C: 1450 nM)
